Can you tell me % inhibition for the items I'm about to list?
- measured_target: T1, recombinant human EGFR extracellular domain with 6xHis (human, UniProt P00533 25-645)
- T1 construct: In-house produced; also called 6xHis EGFR ECD; soluble human EGFR ECD; not shown: 6xHis tag
- protocol_details: SPR competition, competitor 1449
Answers are plain numbers, in %.

Known % inhibition results, listed for orientation:
binder: antibody 1257 (antibody, human IgG1, kappa, V domains shown, Chimeric IgG1 kappa) VH: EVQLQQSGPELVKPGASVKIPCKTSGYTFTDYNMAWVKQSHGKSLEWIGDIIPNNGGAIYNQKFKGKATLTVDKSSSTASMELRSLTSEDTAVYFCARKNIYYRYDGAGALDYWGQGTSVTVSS VL: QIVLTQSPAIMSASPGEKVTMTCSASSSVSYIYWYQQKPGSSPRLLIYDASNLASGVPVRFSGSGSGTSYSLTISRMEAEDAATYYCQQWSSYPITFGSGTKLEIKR
endpoint_name: % inhibition
units: %
reported_measurement: 15
//
binder: antibody 1254 (antibody, human IgG1, kappa, V domains shown, Chimeric IgG1 kappa; also called mAb 1254) VH: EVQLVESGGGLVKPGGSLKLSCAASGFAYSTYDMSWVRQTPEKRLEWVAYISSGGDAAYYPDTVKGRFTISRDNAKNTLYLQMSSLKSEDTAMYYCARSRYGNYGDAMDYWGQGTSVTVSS VL: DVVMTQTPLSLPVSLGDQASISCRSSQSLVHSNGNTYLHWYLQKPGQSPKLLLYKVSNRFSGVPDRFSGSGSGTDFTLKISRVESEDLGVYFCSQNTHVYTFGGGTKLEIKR
endpoint_name: % inhibition
units: %
reported_measurement: 5

The record that follows has no % inhibition shown yet.
(Q) Give reported % inhibition value for antibody 1260 (antibody, human IgG1, kappa, V domains shown, Chimeric IgG1 kappa) VH: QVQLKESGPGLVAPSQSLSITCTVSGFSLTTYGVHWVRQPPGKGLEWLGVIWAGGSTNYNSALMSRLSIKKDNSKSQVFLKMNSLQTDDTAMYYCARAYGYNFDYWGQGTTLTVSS VL: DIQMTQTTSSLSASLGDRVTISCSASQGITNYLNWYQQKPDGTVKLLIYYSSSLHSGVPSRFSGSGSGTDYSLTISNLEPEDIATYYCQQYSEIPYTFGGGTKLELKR
(A) 29
